Assignment: determine reported pKi for the given molecules.
- System: hMCR-4 (Homo sapiens (Human))
- Assay Protocol: Competitive inhibition binding assay using [I125]-NDP-α-MSH, hMCR-4
- Assay Context: membrane homogenates of HEK-293 cells, human recombinant receptor, averaged, read-out: MC-4 Ki (average)
Bridge positions count the residues as written; N and C are the ends. Square brackets hold non-standard residues; d marks the D form. Peptide text beside a SMILES is read from it. dPhe(2-F) = N[C@H](Cc1ccccc1F)C(=O)O; Nle = CCCC[C@H](N)C(=O)O; Orn = NCCC[C@H](N)C(=O)O; Dab = NCC[C@H](N)C(=O)O; Dap = NC[C@H](N)C(=O)O
Scale: negative log10 of molar concentration, which is what pKi denotes.

State pKi (hMCR-4 (Homo sapiens (Human))) of CCCCCC(=O)N[C@H]1CCC(=O)NCC[C@@H](C(=O)N[C@@H](Cc2c[nH]c3ccccc23)C(N)=O)NC(=O)[C@H](CCCNC(=N)N)NC(=O)[C@@H](Cc2ccccc2)NC(=O)[C@H](Cc2c[nH]cn2)NC1=O .
6.96

State pKi (hMCR-4 (Homo sapiens (Human))) of CCCC[C@H](NC(C)=O)C(=O)N[C@H]1CC(=O)NC[C@@H](C(=O)N[C@@H](Cc2c[nH]c3ccccc23)C(N)=O)NC(=O)[C@H](CCCNC(=N)N)NC(=O)[C@@H](Cc2ccccc2)NC(=O)[C@H](Cc2c[nH]cn2)NC1=O [Example 9.4] (Ac-[Nle]DH[dF]R[Dap]W-NH2; lactam 2-6) .
5.88

State pKi (hMCR-4 (Homo sapiens (Human))) of CCCC[C@H](NC(C)=O)C(=O)N[C@H]1CCNC(=O)CCC(=O)NCC[C@@H](C(=O)N[C@@H](Cc2c[nH]c3ccccc23)C(N)=O)NC(=O)[C@H](CCCNC(=N)N)NC(=O)[C@@H](Cc2ccccc2)NC(=O)[C@H](Cc2c[nH]cn2)NC1=O .
6.42

State pKi (hMCR-4 (Homo sapiens (Human))) of CCCC[C@H](NC(C)=O)C(=O)N[C@H]1CCC(=O)NCC[C@@H](C(N)=O)NC(=O)[C@H](CCCNC(=N)N)NC(=O)[C@@H](Cc2ccccc2F)NC(=O)[C@H](CCCN)NC1=O [Example 9.60] (Ac-[Nle]E[Orn][dPhe(2-F)]R[Dab]-NH2; lactam 2-6) .
5.00

State pKi (hMCR-4 (Homo sapiens (Human))) of CCCC[C@H](NC(C)=O)C(=O)N[C@H]1CCC(=O)NCC[C@@H](C(=O)N[C@@H](Cc2c[nH]c3ccccc23)C(N)=O)NC(=O)[C@H](CCCNC(=N)N)NC(=O)[C@@H](Cc2ccccc2)NC(=O)[C@H](Cc2c[nH]cn2)NC1=O [Example 9.31] .
5.00

---

- System: hMCR-4 (Homo sapiens (Human), UniProt P32245)
- Sequence (P32245 whole entry): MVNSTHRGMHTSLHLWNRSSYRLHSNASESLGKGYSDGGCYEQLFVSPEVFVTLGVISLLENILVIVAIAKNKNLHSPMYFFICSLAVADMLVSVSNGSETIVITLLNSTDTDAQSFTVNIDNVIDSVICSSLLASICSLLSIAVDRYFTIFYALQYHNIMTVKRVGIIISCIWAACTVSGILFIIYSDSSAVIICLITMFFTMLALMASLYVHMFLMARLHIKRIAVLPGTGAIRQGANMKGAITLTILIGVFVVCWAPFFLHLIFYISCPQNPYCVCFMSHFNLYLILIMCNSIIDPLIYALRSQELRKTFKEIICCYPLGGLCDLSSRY
- Assay Protocol: Competitive inhibition binding assay using [I125]-NDP-α-MSH, hMCR-4
- Assay Context: membrane homogenates of HEK-293 cells, human recombinant receptor, averaged, read-out: MC-4 Ki (average)
Bridge positions count the residues as written; N and C are the ends. Square brackets hold non-standard residues; d marks the D form. Peptide text beside a SMILES is read from it. dPhe(2-Cl) = N[C@H](Cc1ccccc1Cl)C(=O)O; dPhe(4-F) = N[C@H](Cc1ccc(F)cc1)C(=O)O; Nle = CCCC[C@H](N)C(=O)O; Orn = NCCC[C@H](N)C(=O)O; Dab = NCC[C@H](N)C(=O)O
Property Measured: Ki (µM)
Report only the number, with the unit µM understood.

State Ki (hMCR-4 (Homo sapiens (Human), UniProt P32245)) of CCCC[C@H](NC(C)=O)C(=O)N[C@H]1CCC(=O)NCC[C@@H](C(=O)N[C@@H](Cc2c[nH]c3ccccc23)C(N)=O)NC(=O)[C@H](CCCNC(=N)N)NC(=O)[C@H](Cc2ccccc2)NC(=O)[C@H](Cc2c[nH]cn2)NC1=O [Example 9.8] .
10

State Ki (hMCR-4 (Homo sapiens (Human), UniProt P32245)) of CCCC[C@H](NC(C)=O)C(=O)N[C@H]1CCC(=O)NCC[C@@H](C(N)=O)NC(=O)[C@H](CCCNC(=N)N)NC(=O)[C@@H](Cc2ccccc2Cl)NC(=O)[C@H](CCCN)NC1=O [Example 9.57] (Ac-[Nle]E[Orn][dPhe(2-Cl)]R[Dab]-NH2; lactam 2-6) .
10

State Ki (hMCR-4 (Homo sapiens (Human), UniProt P32245)) of CCCC[C@H](NC(C)=O)C(=O)N[C@H]1CCC(=O)NCCC[C@@H](C(=O)N[C@@H](Cc2c[nH]c3ccccc23)C(N)=O)NC(=O)[C@H](CCCNC(=N)N)NC(=O)[C@@H](Cc2ccccc2)NC(=O)[C@H](Cc2c[nH]cn2)NC1=O [Example 9.6] .
0.295

State Ki (hMCR-4 (Homo sapiens (Human), UniProt P32245)) of CCCC[C@H](NC(C)=O)C(=O)N[C@H]1CCC(=O)NCC[C@@H](C(=O)N[C@@H](Cc2c[nH]c3ccccc23)C(N)=O)NC(=O)[C@H](CCCNC(=N)N)NC(=O)[C@@H](Cc2ccccc2)NC(=O)[C@H](CCCN)NC1=O [Example 9.42] .
0.045

State Ki (hMCR-4 (Homo sapiens (Human), UniProt P32245)) of CCCC[C@H](NC(C)=O)C(=O)N[C@H]1CCC(=O)NCC[C@@H](C(=O)N[C@@H](CCCCN)C(N)=O)NC(=O)[C@H](CCCNC(=N)N)NC(=O)[C@@H](Cc2ccccc2)NC(=O)[C@H](Cc2c[nH]cn2)NC1=O [Example 9.39] (Ac-[Nle]EH[dF]R[Dab]K-NH2; lactam 2-6) .
7.38

State Ki (hMCR-4 (Homo sapiens (Human), UniProt P32245)) of CCCC[C@H](NC(C)=O)C(=O)N[C@H]1CCC(=O)NCC[C@@H](C(N)=O)NC(=O)[C@H](CCCNC(=N)N)NC(=O)[C@@H](Cc2ccc(F)cc2)NC(=O)[C@H](CCCN)NC1=O [Example 9.61] (Ac-[Nle]E[Orn][dPhe(4-F)]R[Dab]-NH2; lactam 2-6) .
10

State Ki (hMCR-4 (Homo sapiens (Human), UniProt P32245)) of CCCC[C@H](NC(C)=O)C(=O)N[C@H]1CCC(=O)NCC[C@@H](C(N)=O)NC(=O)[C@H](C)NC(=O)[C@@H](Cc2ccccc2)NC(=O)[C@H](Cc2c[nH]cn2)NC1=O [Example 9.33, Ac-Nle-cyclo(Glu-His-D-Phe-Ala-Dab)-NH2] (Ac-[Nle]EH[dF]A[Dab]-NH2; lactam 2-6) .
10

State Ki (hMCR-4 (Homo sapiens (Human), UniProt P32245)) of CCCC[C@H](NC(C)=O)C(=O)N[C@H]1CCC(=O)NCC[C@@H](C(=O)N[C@@H](C)C(N)=O)NC(=O)[C@H](CCCNC(=N)N)NC(=O)[C@@H](Cc2ccccc2)NC(=O)[C@H](Cc2c[nH]cn2)NC1=O [Example 9.25] (Ac-[Nle]EH[dF]R[Dab]A-NH2; lactam 2-6) .
7.48

From: patent US9447148B2
